Assign pEC50 to each entry below.
- measured-on: KOR (kappa opioid receptor) (Homo sapiens, UniProt P41145)
- Sequence (P41145 whole entry): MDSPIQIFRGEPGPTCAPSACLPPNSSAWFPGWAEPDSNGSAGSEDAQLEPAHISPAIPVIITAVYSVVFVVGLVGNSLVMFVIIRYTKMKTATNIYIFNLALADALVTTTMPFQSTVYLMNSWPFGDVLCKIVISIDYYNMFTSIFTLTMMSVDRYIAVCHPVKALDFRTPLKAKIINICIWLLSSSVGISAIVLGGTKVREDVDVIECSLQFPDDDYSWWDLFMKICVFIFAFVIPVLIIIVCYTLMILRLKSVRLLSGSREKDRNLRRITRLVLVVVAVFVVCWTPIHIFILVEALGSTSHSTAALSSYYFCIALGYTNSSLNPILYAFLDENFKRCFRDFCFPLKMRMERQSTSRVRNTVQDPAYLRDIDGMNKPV
- experiment-summary: cell-based
Formally, pEC50 is defined as -log10 of the concentration c, with c in mol/L.

Enquiry: Quick one: pEC50 for "CCCCOCCOCCOCCS(=O)(=O)Nc1cccc([C@@H](CN2CCCC2)N(C)C(=O)Cc2ccc(Cl)c(Cl)c2)c1" ?
Return: 9.70

Enquiry: Now the compound "COCCOCCOCCOCCOCCNc1ccc([C@@H](CN2CCCC2)N(C)C(=O)Cc2ccc(Cl)c(Cl)c2)cc1"
Return: 8.59

Enquiry: Now the compound "COCCOCCOCCO[C@H]1CCN(C[C@H](c2ccc(OCCO)cc2)N(C)C(=O)Cc2ccc(Cl)c(Cl)c2)C1"
Return: 8.38

Enquiry: Now the compound "CN(C(=O)Cc1ccc(Cl)c(Cl)c1)[C@H](CN1CCCC1)c1cccc(NS(C)(=O)=O)c1"
Return: 10.30

Enquiry: Now the compound CN(C(=O)Cc1ccc(Cl)c(Cl)c1)[C@H](CN1CCCC1)c1cccc(NS(=O)(=O)C2CS(=O)(=O)CC2O)c1 (stereo partly shown)
Return: 10.52

Enquiry: Now the compound "CN(C(=O)Cc1ccc(Cl)c(Cl)c1)[C@H](CN1CC[C@H](OCCOCC(=O)O)C1)c1ccccc1"
Return: 6.83

Enquiry: Now the compound "CN(C(=O)C(c1ccccc1)c1ccccc1)[C@H](CN1CCCC1)c1cccc(N)c1"
Return: 8.29

---

- measured-on: KOR (kappa opioid receptor) (Homo sapiens, UniProt P41145)
- experiment-summary: cell-based
Assign pEC50 to each entry below.
Formally, pEC50 is defined as -log10 of the concentration c, with c in mol/L.

Enquiry: Quick one: pEC50 for COCCOCCOCCO[C@H]1CCN(C[C@H](c2ccccc2)N(C)C(=O)Cc2ccc(Cl)c(Cl)c2)C1.Cl [compound 4] ?
Return: 9.38

Enquiry: Now the molecule CCN(CCOC)C[C@H](c1ccccc1)N(C)C(=O)Cc1ccc(Cl)c(Cl)c1.Cl [compound 10]
Return: 8.51

Enquiry: Now the molecule COCCOCCOCCOCCOCCO[C@H]1CCN(C[C@H](c2ccccc2)N(C)C(=O)C(c2ccccc2)c2ccccc2)C1 [compound 9]
Return: 6.75

Enquiry: Now the molecule CN(C(=O)Cc1ccc(Cl)c(Cl)c1)[C@H](CN1CC[C@H](OCCO)C1)c1ccccc1 [compound 25]
Return: 8.39

Enquiry: Now the molecule COCCOCCOCCOCCOCCOCC(=O)Nc1cccc([C@@H](CN2CCCC2)N(C)C(=O)C(c2ccccc2)c2ccccc2)c1 [compound 12]
Return: 7.44

Enquiry: Now the molecule COCCOCCOCCO[C@H]1CCN(C[C@H](c2cccc(NS(C)(=O)=O)c2)N(C)C(=O)Cc2ccc(Cl)c(Cl)c2)C1 [compound 17]
Return: 7.17

Enquiry: Now the molecule CN(C(=O)Cc1ccc(Cl)c(Cl)c1)[C@H](CN1CC[C@H](OCCOCCOCCO)C1)c1ccccc1 [compound 27]
Return: 8.36

Enquiry: Now the molecule COCCOCCOCCOCCOCCO[C@H]1CCN(C[C@H](c2ccccc2)N(C)C(=O)CNc2ccccc2)C1 [compound 8]
Return: 7.13

Enquiry: Now the molecule COCCS(=O)(=O)Nc1cccc([C@@H](CN2CCCC2)N(C)C(=O)Cc2ccc(Cl)c(Cl)c2)c1 [compound 18]
Return: 10.05

Enquiry: Now the molecule COCCOCC(=O)Nc1cccc([C@@H](CN2CC[C@H](O)C2)N(C)C(=O)Cc2ccc(Cl)c(Cl)c2)c1 [compound 50]
Return: 10.22

Enquiry: Now the molecule CN(C(=O)Cc1ccc(Cl)c(Cl)c1)[C@H](CN1CCCC1)c1cccc(NS(=O)(=O)CCOCC(F)(F)F)c1.Cl [compound 19]
Return: 10.10

Enquiry: Now the molecule COCCOCCOCCOCCOCCO[C@H]1CCN(C[C@H](c2ccccc2)N(C)C(=O)Cc2ccc(Cl)c(Cl)c2)C1 [compound 7]
Return: 8.05

Enquiry: Now the molecule COCCOCCOCCOCCOCCOCCOCCOC(=O)N[C@H](C(=O)Nc1cccc([C@@H](CN2CC[C@H](O)C2)N(C)C(=O)Cc2ccc(Cl)c(Cl)c2)c1)C(C)C [compound 48]
Return: 9.37

Enquiry: Now the molecule COCCOCCOCCNC(=O)O[C@H]1CCN(C[C@H](c2ccccc2)N(C)C(=O)Cc2ccc(Cl)c(Cl)c2)C1.Cl [compound 5]
Return: 7.12
